Test system: 3-dpf Zebrafish Embryos Challenged with LPS (P. aeruginosa 60 μg/mL)
Assay type: in vivo, Danio rerio
setup conditions: 3-dpf embryos; P. aeruginosa LPS 60 μg/mL; compound 10 μM; 24 hours; n=16
Counter-ions that a name gives are not always drawn.
Percent Rescue (Mort + Tail Edema) values by entry

Worked examples, 5 compounds total:
- compound: "COc1cc2ncnc(Nc3ccc(F)c(Cl)c3)c2cc1OCCCN1CCOCC1 [Compound 516, Gefitinib (ZD1839)]"
  assay target: "3-dpf Zebrafish Embryos Challenged with LPS (P. aeruginosa 60 μg/mL)"
  observed measurement: "50%"
- compound: "CNCCc1ccccn1"
  assay target: "3-dpf Zebrafish Embryos Challenged with LPS (P. aeruginosa 60 μg/mL)"
  observed measurement: "56%"
- compound: "O=C(O)c1cc2ccccc2c(Cc2c(O)c(C(=O)O)cc3ccccc23)c1O.OCCOCCN1CCN(C(c2ccccc2)c2ccc(Cl)cc2)CC1 [Compound 207, Hydroxyzine (pamoate)]"
  assay target: "3-dpf Zebrafish Embryos Challenged with LPS (P. aeruginosa 60 μg/mL)"
  observed measurement: "50%"
- compound: "CCN(CC)CCNC(=O)c1c(C)[nH]c(/C=C2\\C(=O)Nc3ccc(F)cc32)c1C [Compound 97, Sunitinib]"
  assay target: "3-dpf Zebrafish Embryos Challenged with LPS (P. aeruginosa 60 μg/mL)"
  observed measurement: "81%"
- compound: "O=c1ccc2ccc(OCCCCN3CCN(c4cccc5sccc45)CC3)cc2[nH]1"
  assay target: "3-dpf Zebrafish Embryos Challenged with LPS (P. aeruginosa 60 μg/mL)"
  observed measurement: "100%"

Documented Percent Rescue (Mort + Tail Edema) of CC(C)NNC(=O)c1ccncc1 : 63%

Documented Percent Rescue (Mort + Tail Edema) of O=C(c1ccc(F)cc1)C1CCN(CCn2c(=O)[nH]c3ccccc3c2=O)CC1 [Compound 88, Ketanserin] : 100%

Documented Percent Rescue (Mort + Tail Edema) of CN(C)[C@@H](CCOc1cccc2ccccc12)c1ccccc1 [Compound 156, Dapoxetine (hydrochloride)] : 100%

Documented Percent Rescue (Mort + Tail Edema) of CCCCCCCCCCCCCCCC(=O)OC1CCCn2c1nc(C)c(CCN1CCC(c3noc4cc(F)ccc34)CC1)c2=O (centres unmarked) [Compound 429, Paliperidone palmitate] : 94%

Documented Percent Rescue (Mort + Tail Edema) of O=C(c1ccc(F)cc1)C1CCN(CCn2c(=O)[nH]c3ccccc3c2=O)CC1 [Compound 437, Ketanserin (tartrate)] : 100%
